Source listed as PubChem BioAssay (NCI).

System: SNB-19 CNS
Assay: NCI-60 one-dose screen, 48 h (100 = growth as untreated, 0 = no growth, -100 = all killed)
Settings: 10 µM unless noted
This is part of a sample that, as a whole, favours compounds with a hit. Of some 83,000 tested, about 20% had one in any assay.
Exercise: for every item that follows, state its recorded growth.
One number for each entry, in %.

O=[N+]([O-])c1ccc2[nH]cc(-c3c4ccccc4cc4[nH]c5ccc([N+](=O)[O-])cc5c34)c2c1; 47.6
CS(=O)(=O)N1CCN(Cc2cc3nc(-c4cccc5[nH]ncc45)nc(N4CCOCC4)c3s2)CC1 (tested in a mixture with another compound); 28
N#Cc1ncc(-c2ccc(C(F)(F)F)cc2)c(NC2CCCCCC2)n1; 35.2
Cc1ccc(-c2cc(-c3ccccc3)n(-c3ccccc3)n2)cc1; 95.4
CC1Cc2ccccc2N1C(=O)c1ccc(C(=O)c2ccccc2)cc1 (stereo not drawn); 90.5
CC(=O)OC1Oc2cc(C)c(C)cc2-c2oc(=O)c(-c3ccccc3)cc21 (stereo not drawn); 26.9
CCOC(=O)c1sc(NC(=O)COc2ccc(/C=C3\CCc4cc(OC)ccc4C3=O)cc2)nc1C; 96.1
O=C(O)c1ccc(CNS(=O)(=O)c2ccc3ccccc3c2)cc1; 104
CCOc1cc(/C=C/C(=O)C(C(=O)/C=C/c2ccc(OC(=O)CNc3nc4ccccc4[nH]3)c(OCC)c2)C(=O)CNc2nc3ccccc3[nH]2)ccc1OC(=O)CNc1nc2ccccc2[nH]1; 25.1
Cn1c(=O)c2[nH]c(=S)n(Cc3ccccc3)c2n(C)c1=O; 99.1

Go through the items and report each one's growth.
1. CCC(C)C1NC(=O)C(CCNCS(=O)(=O)O)NC(=O)C(NC(=O)C(CCNCS(=O)(=O)O)NC(=O)C(NC(=O)C(CCNCS(=O)(=O)O)NC(=O)CCCCC(C)C)C(C)O)CCNC(=O)C(C(C)O)NC(=O)C(CCNCS(=O)(=O)O)NC(=O)C(CCNCS(=O)(=O)O)NC(=O)C(C(C)CC)NC1=O (stereo not drawn)
2. Cc1cc(C(=O)Nc2ccc3cc(CN4CCOCC4)ccc3n2)c(C)n1-c1ccccc1
3. COc1cc(/C=N/NC(=O)c2ccc(C(F)(F)F)nc2Nc2cc(Cl)ccc2C)cc(OC)c1OC
4. Cc1onc(-c2ccccc2Cl)c1C(=O)N[C@@H]1C(=O)N2[C@@H]1SC(C)(C)[C@@H]2C(=O)O
5. CC[C@@H](C)/C=C(C)/C=C/C(O)=C1\C(=O)N[C@@H](Cc2ccc(OC(=O)[C@@](OC)(c3ccccc3)C(F)(F)F)cc2)C1=O
6. CCOC(=O)C1C(=O)NC(C(=O)OCC)(C(=O)OCC)C1CC (stereo not drawn)

A)
[54.9, 77, 75.4, 105, 96.6, 105]

For every record below, what is its growth?
1. COc1ccc2nc(NC(=O)CN3CCn4c(nnc4C(F)(F)F)C3)sc2c1
2. CCN1CC2=C(Nc3nc(SC)[nH]c(=O)c3C2c2cc(OC)c(OC)c(OC)c2)/C(=C/c2cc(OC)c(OC)c(OC)c2)C1 (stereo not drawn)

A)
90.5
91.6
